# TESTED_SYSTEM: acetylcholinesterase (Homo sapiens)
# Construct: purchased Sigma-Aldrich (St. Louis, MO, USA)
# Sequence (P22303 32-614, species assumed): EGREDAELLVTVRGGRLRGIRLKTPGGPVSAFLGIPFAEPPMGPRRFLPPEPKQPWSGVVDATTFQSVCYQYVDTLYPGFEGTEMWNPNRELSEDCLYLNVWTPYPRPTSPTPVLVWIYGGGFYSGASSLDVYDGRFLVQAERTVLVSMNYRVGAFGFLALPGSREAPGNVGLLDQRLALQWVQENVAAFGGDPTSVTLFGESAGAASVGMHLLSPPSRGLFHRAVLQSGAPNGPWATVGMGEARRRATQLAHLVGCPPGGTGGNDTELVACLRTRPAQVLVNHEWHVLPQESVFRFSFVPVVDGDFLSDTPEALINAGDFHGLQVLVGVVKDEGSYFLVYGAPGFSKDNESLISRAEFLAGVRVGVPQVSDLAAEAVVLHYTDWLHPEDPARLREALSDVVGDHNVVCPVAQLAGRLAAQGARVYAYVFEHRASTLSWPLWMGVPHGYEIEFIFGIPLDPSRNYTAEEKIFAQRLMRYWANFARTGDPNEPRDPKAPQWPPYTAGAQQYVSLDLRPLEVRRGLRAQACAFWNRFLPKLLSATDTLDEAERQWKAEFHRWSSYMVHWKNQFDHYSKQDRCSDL
# Type: biochemical
# TEST_PARAMETERS: alkaloid standards; 15 min at 37 °C, pH 7.8
MEASURE_NAME: IC50 (µM)
# unit: µM | format: bare number

Enquiry: Fill in reported IC50 for this entry: `COc1cc2c(cc1OC)-c1cc3ccc(OC)c(OC)c3c[n+]1CC2`
Return: 29.2

----------
# TESTED_SYSTEM: butyrylcholinesterase (Homo sapiens, UniProt P06276)
# Construct: purchased Sigma-Aldrich (St. Louis, MO, USA)
# Sequence (P06276 29-602): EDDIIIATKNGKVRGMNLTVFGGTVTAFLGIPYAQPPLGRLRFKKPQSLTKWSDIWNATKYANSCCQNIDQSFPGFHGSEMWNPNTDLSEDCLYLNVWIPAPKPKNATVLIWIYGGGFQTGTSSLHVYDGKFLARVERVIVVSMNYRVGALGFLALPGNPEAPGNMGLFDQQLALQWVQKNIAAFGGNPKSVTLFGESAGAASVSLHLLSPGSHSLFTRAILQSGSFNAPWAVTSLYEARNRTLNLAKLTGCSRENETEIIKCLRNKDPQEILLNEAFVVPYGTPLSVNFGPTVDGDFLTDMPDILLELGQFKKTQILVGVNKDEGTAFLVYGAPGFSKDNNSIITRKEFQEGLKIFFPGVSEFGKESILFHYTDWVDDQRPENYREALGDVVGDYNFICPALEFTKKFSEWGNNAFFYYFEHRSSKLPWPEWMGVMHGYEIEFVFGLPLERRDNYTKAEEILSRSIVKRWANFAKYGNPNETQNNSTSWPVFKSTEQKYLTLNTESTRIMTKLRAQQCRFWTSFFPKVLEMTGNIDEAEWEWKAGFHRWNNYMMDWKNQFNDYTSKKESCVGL
# MEASUREMENT_NOTES: Butyrylcholinesterase inhibition, Ellman method with HPLC-DAD
# Assay type: biochemical
# TEST_PARAMETERS: alkaloid standards; 15 min at 37 °C, pH 7.8
MEASURE_NAME: pIC50
In simple prose, pIC50 is minus the logarithm base ten of a concentration in moles per litre.

Enquiry: Fill in reported pIC50 for this entry: `COc1cc2c(cc1OC)-c1cc3ccc(OC)c(OC)c3c[n+]1CC2`
Return: 3.72

Values compiled from paper PMC10933966.
